Each recorded value in this set is attributed to ChEMBL document CHEMBL4002640.

biological target: UniProt Q12809; experiment: Displacement of [3H]-MK499 from human ERG IKr channel expressed in HEK293 cell membranes
Sequence (Q12809 whole entry): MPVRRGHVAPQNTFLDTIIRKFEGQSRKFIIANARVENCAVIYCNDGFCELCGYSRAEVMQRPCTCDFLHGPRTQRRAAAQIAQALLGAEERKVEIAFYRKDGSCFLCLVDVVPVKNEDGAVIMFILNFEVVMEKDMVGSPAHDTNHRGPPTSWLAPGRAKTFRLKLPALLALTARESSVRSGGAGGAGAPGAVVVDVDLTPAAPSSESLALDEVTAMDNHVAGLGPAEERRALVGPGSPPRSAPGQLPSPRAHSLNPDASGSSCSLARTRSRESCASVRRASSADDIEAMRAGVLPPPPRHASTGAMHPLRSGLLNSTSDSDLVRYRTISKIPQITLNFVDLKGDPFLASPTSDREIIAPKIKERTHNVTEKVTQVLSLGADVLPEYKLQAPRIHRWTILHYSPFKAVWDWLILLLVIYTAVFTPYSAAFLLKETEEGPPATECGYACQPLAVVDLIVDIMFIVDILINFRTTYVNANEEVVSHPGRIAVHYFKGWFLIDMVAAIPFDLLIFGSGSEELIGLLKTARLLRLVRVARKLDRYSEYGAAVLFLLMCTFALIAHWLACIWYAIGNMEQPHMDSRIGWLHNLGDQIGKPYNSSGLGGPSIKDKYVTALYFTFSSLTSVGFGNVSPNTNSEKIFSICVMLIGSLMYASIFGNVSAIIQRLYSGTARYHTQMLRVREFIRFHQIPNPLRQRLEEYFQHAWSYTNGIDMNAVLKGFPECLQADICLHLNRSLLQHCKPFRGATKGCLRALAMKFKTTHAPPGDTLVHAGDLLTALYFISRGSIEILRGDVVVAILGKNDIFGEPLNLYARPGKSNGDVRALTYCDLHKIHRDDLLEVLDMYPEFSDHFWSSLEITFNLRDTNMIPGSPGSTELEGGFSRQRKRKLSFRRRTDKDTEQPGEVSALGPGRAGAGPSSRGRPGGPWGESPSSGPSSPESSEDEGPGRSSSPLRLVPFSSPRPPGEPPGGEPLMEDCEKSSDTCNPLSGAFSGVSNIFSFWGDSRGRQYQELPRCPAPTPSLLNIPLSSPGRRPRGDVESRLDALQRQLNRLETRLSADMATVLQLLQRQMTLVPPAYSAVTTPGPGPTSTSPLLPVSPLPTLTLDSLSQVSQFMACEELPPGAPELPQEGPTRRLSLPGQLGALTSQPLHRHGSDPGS
MEASURED PROPERTY: IC50 (µM)
Numeric only. Scale: µM

Given the entry `c1cncc(C(Cc2ccccc2-c2cncc3ccccc23)c2cccnc2)c1` , report its measured IC50.
12

Given the entry `N#Cc1cccc(-c2cc(F)ccc2CC(c2cccnc2)c2cccnc2)c1` , report its measured IC50.
10.2

Given the entry `FC(F)(F)Oc1cccc(-c2ncccc2CC(c2cccnc2)c2cccnc2)c1` , report its measured IC50.
12.7

* * *

tested on: Canis familiaris; assay: Effect on ventricular refractory period in iv dosed anesthetized Mongrel dog assessed as threshold change in ventricular refractory period at 400 ms of basic cycle length administered as 60 mins infusion measured up to 60 mins by electrophysiology method; type: ADME, organism-based, Canis lupus familiaris; conditions: in vivo, 1 h
MEASURED PROPERTY: Activity

So what Activity did `CS(=O)(=O)Nc1cccc([C@H](c2ccc(F)cc2)C(c2cccnc2)c2cccnc2)n1` get with Canis familiaris?
6 to 7 µM

So what Activity did `O[C@@H](c1cccnc1-c1cc(Cl)cc(Cl)c1)C(c1cccnc1)c1cccnc1` get with Canis familiaris?
> 25 µM
